Recorded values, source ChEMBL document CHEMBL1201862.

Some molecules, each annotated with its measured GI50.
Test system: DU-145
Procedure Summary: NCI tumour cell line growth inhibition, 48 h
Activity calls are given as the source filed them. Cut-off read from the data, not from the text of the source: active = GI50 up to about 1.1 µM and inactive = higher.

INSERT INTO results (molecule, experimental_system, endpoint_value) VALUES
  ('CCOc1cc(C2CC(c3ccc(NS(=O)(=O)c4cc([N+](=O)[O-])ccc4C)cc3)=NN2S(=O)(=O)c2cc([N+](=O)[O-])ccc2C)ccc1O (stereo not given)', 'DU-145', '43.8 µM (inactive)'),
  ('COC(=O)c1c(C)cccc1/C=C1\Cc2ccc(C)c(C)c2C1=O', 'DU-145', '> 100 µM (inactive)'),
  ('COc1ccc(-c2cc(C(O)C3CCCCN3)c3ccccc3n2)cc1 (stereo not given)', 'DU-145', '8.39 µM (inactive)'),
  ('CC(=O)Oc1ccc2ccc(=O)oc2c1OC(C)=O', 'DU-145', '> 100 µM (inactive)'),
  ('Cc1ccc(OC2CC(n3cnc4ncnc(Cl)c43)OC2Oc2ccc(C)cc2)cc1 (stereo not given)', 'DU-145', '15.7 µM (inactive)'),
  ('Cc1ccc(S(=O)(=O)OC2C(C3COC(C)(C)O3)OC3OC(C)(C)OC32)cc1 (stereo not given)', 'DU-145', '> 100 µM (inactive)'),
  ('O=C1OC(c2ccco2)=N/C1=C\c1cccc([N+](=O)[O-])c1', 'DU-145', '> 100 µM (inactive)'),
  ('CCN1CCC(O)(c2ccc(Oc3ccc(F)cc3)cc2)C(C(=O)c2ccc(Oc3ccc(F)cc3)cc2)C1 (stereo not given)', 'DU-145', '12.2 µM (inactive)'),
  ('N#CSCC1COc2ccccc2O1 (stereo not given)', 'DU-145', '> 10 µM (inactive)');

Request: Give DU-145 GI50 for COc1ccc(C2SC(=N)Nc3c2c(C)nn3C(=O)c2ccncc2)cc1 (stereo not given)
Result: > 100 µM (inactive)

* * *

System: OVCAR-8
Procedure Summary: NCI tumour cell line growth inhibition, 48 h
The source made the active and inactive calls. No stated cut-off is given here; in the data, active = GI50 up to about 1.1 µM and inactive = higher.
Observation Type: GI50

INSERT INTO results (compound, endpoint_value) VALUES
  ('c1ccc(CN2COc3c(ccc4c5c(ccc34)CN(Cc3ccccc3)CO5)C2)cc1', '> 100 µM (inactive)'),
  ('CCOC(=O)C(CC#Cc1ccc(C#CCC(NC(C)=O)C(=O)OCC)cc1)NC(C)=O (stereo not given)', '> 100 µM (inactive)'),
  ('Cn1c2ccccc2c(=O)c2c(O)cc3c(c21)C=CC(C)(C)O3', '2.5 µM (inactive)'),
  ('CCCCCC/C=C\CCCCCCCCC(=O)c1cccc(OC)c1OC', '> 100 µM (inactive)'),
  ('c1c[nH]c(Cc2nc(Cc3c[nH]cn3)c[nH]2)n1', '33.5 µM (inactive)');

Request: Which GI50 is listed for Cc1ccc(S(=O)(=O)OC2C(C3COC(C)(C)O3)OC3OC(C)(C)OC32)cc1 (stereo not given) ?
Result: > 100 µM (inactive)

Request: Which GI50 is listed for CC(C)OC(=O)c1ccc(CCC2=CC(=O)C=CC2=O)cc1 ?
Result: 7.21 µM (inactive)

Request: Which GI50 is listed for CC(C)=CCc1c(O)c(CC=C(C)C)c2oc3c(c(=O)c2c1O)C(C=C(C)C)Oc1cc(O)ccc1-3 (stereo not given) ?
Result: 6.85 µM (inactive)

Request: Which GI50 is listed for CC(=O)Oc1ccc2ccc(=O)oc2c1OC(C)=O ?
Result: 35.4 µM (inactive)

Request: Which GI50 is listed for COc1ccc(/C=N/N=C(\N)NO)c(OC)c1 ?
Result: 61 µM (inactive)

* * *

Tested on: IGROV-1
Procedure Summary: NCI tumour cell line growth inhibition, 48 h
Active and inactive are the calls of the source. Rule as the data show it: active = GI50 up to about 1.1 µM and inactive = higher.
Please state which outcome applies, choosing from active, inactive

Would you please look over these solved cases?
INSERT INTO results (molecule, discrete_label) VALUES
  ('NS(=O)(=O)c1ccc(NCc2nc3ccccc3[nH]2)cc1', 'inactive'),
  ('Cn1c2ccccc2c(=O)c2c(O)cc3c(c21)C=CC(C)(C)O3', 'inactive'),
  ('O=C1NC(Cc2ccccc2)C(=O)N2CCCC12 (centres undefined)', 'inactive'),
  ('COC(=O)[C@@H]1c2cc3c(c(O)c2[C@@H](OC)C[C@@]1(C)O)C(=O)c1c(O)cc2c(c1C3=O)OC1O[C@@]2(C)[C@H](O)[C@@H](N(C)C)[C@@H]1O', 'active'),
  ('O=C1C2C(C(=O)N1OS(=O)(=O)c1ccccc1)N(Cc1ccccc1)C(=O)N2Cc1ccccc1 (centres undefined)', 'inactive'),
  ('Oc1ccc(O)c(CNc2ccc(C(O)C(F)(F)F)cc2)c1 (centres undefined)', 'inactive'),
  ('COC(=O)[C@H](Cc1c[nH]c2ccccc12)NC(=O)c1ccccc1I', 'inactive'),
  ('CC[N+]1(C)CCC(O)(/C=C/c2ccc(OC)cc2)C(C(=O)/C=C/c2ccc(OC)cc2)C1 (centres undefined)', 'inactive');

Below: the item to evaluate.
Request: Please state the recorded outcome for this molecule: COc1ccc2c(c1)-c1c(c3ccccc3n1CCN1CCCCC1)CC2
Result: inactive

* * *

Test system: IGROV-1
Procedure Summary: NCI tumour cell line growth inhibition, 48 h
Calls of active or inactive are those of the source. Rule as the data show it: active = GI50 up to about 1.1 µM and inactive = higher.
Observation Type: GI50

INSERT INTO measurements (compound, observation_type, endpoint_value) VALUES
  ('CC(C)[Si](OCC1CC(C[C@H]2CC(C[C@H]3C[C@@H](CO[Si](C(C)C)(C(C)C)C(C)C)OC(C)(C)O3)OC(C)(C)O2)OC(C)(C)O1)(C(C)C)C(C)C (stereo not given in full)', 'GI50', '> 100 µM (inactive)'),
  ('Cn1ncc2c(NCCc3ccccc3)nc(Cl)nc21', 'GI50', '33.1 µM (inactive)'),
  ('C/C(=C\c1ccc(Cl)cc1)C(C)(C)C(=O)O', 'GI50', '> 100 µM (inactive)');

Request: Which GI50 is listed for N#Cc1c(-c2ccc(Cl)cc2)cc(-c2ccc(Nc3ccnc4cc(Cl)ccc34)cc2)[nH]c1=O ?
Result: > 100 µM (inactive)

Request: Which GI50 is listed for COc1ccc(C=O)cc1Oc1ccc(C[C@H]2c3c(cc(OC)c4c3Oc3cc5c(cc3O4)CCN(C)C5=O)CCN2C)cc1 ?
Result: 7.16 µM (inactive)

Request: Which GI50 is listed for O=C(c1ccccc1)c1ccc2nc3n(c2c1)C(c1c(F)cccc1F)SC3 (stereo not given) ?
Result: 5.05 µM (inactive)

Request: Which GI50 is listed for CCOP(=O)(OCC)/C(F)=C/c1ccc(F)cc1 ?
Result: > 100 µM (inactive)

Request: Which GI50 is listed for COc1ccc(/C=C2\N=C3N(Cc4ccccc4)C=C(N)N3C2=O)cc1 ?
Result: 69.3 µM (inactive)

Request: Which GI50 is listed for N#CC1(C#N)C(c2ccccc2)C=CC12OCCCO2 (stereo not given) ?
Result: 60.5 µM (inactive)

Request: Which GI50 is listed for COc1ccc(O)c2c(=O)ccccc12 ?
Result: > 100 µM (inactive)

* * *

Test system: UO-31
Procedure Summary: NCI tumour cell line growth inhibition, 48 h
The source made the active and inactive calls. Cut-off read from the data, not from the text of the source: active = GI50 up to about 1.1 µM and inactive = higher.
Observation Type: GI50

# example entries with known answers
INSERT INTO assay_data (molecule, experimental_system, endpoint_value) VALUES
  ('COc1cccc2c1C(CO)N1C(C#N)C3CC(C(=O)O)C(C1C2)N3C (stereo not given)', 'UO-31', '1.59 µM (inactive)'),
  ('Cc1ccc(OC2CC(n3cnc4ncnc(Cl)c43)OC2Oc2ccc(C)cc2)cc1 (stereo not given)', 'UO-31', '11.1 µM (inactive)'),
  ('C=C(CCC/C(C)=C/C=C/[C@]1(C)CCCc2ccoc21)CC(=O)O', 'UO-31', '> 100 µM (inactive)'),
  ('N#CSCC1COc2ccccc2O1 (stereo not given)', 'UO-31', '> 10 µM (inactive)'),
  ('CC(=O)O[C@H]1[C@@H](OC2CCCC2(c2ccccc2)c2ccccc2)O[N+]([O-])=C[C@@]12COCc1cc3c(cc12)OCO3 (stereo not given in full)', 'UO-31', '4.42 µM (inactive)');

Request: Which GI50 is listed for CC(C)(C)C1=CC(O)(c2c3ccccc3c(C3(O)C=C(C(C)(C)C)C(=O)C(C(C)(C)C)=C3)c3ccccc23)C=C(C(C)(C)C)C1=O ?
Result: > 100 µM (inactive)

Request: Which GI50 is listed for O=C1NC(Cc2ccccc2)C(=O)N2CCCC12 (stereo not given) ?
Result: > 100 µM (inactive)

Request: Which GI50 is listed for OCC(O)C(O)C(O)c1nnn[nH]1 (stereo not given) ?
Result: > 100 µM (inactive)

Request: Which GI50 is listed for CC1=C(C(=O)OCCO[N+](=O)[O-])C(c2ccccc2[N+](=O)[O-])C(C(=O)OC(C)C)=C(C)N1 (stereo not given) ?
Result: 13.2 µM (inactive)

Request: Which GI50 is listed for O=C1CCNC/C1=C\c1ccccc1 ?
Result: 17 µM (inactive)
